Just for reference, PubChem BioAssay AID521 is where these values come from.

target: Tyrosine-protein phosphatase non-receptor type 7 (Homo sapiens); assay: HePTP tyrosine phosphatase activity blockers – biochemical, absorbance, leukemia target, primary screen (AID 521); conditions: recombinant HePTP phosphatase activity, OD absorbance; at 20 µM
In all, about 110,000 compounds went through this assay and about 730 (0.66%) were called active. No stated cut-off is given here; in the data, active means inhibition above about 50%; inconclusive means no clear call, values can overlap the other calls; inactive means below that. Only a selection was taken, and actives are over-represented in it overall.
Outcome codes: active, inactive

compound: O=C(NC(NC(=S)Nc1ccc(I)cc1)C(Cl)(Cl)Cl)c1cccc([N+](=O)[O-])c1 (configuration not stated)
assignedLabel: inactive

compound: O=C1NN(c2ccccc2)C(=O)/C1=C/c1ccc(-c2cccc(C(=O)O)c2)o1
assignedLabel: inactive

compound: O=Cc1ccc(/C=C2/SC(=S)N(c3cccc(Cl)c3)C2=O)cc1
assignedLabel: inactive

compound: CN1CN=C2SC3(COC(c4cccc(Br)c4)OC3)C(=O)N2C1 (configuration not stated)
assignedLabel: inactive

compound: COc1cc2c(cc1NC(=O)c1c(-c3c(F)cccc3Cl)noc1C)oc1ccccc12
assignedLabel: inactive

compound: CCOc1cc(C(=O)Nc2cccc(F)c2)cc(OCC)c1OCC
assignedLabel: active

compound: CCCOC(=O)Nc1sc2c(c1C(=O)OCC)CCC2
assignedLabel: inactive

compound: O=C(O)c1cc(-c2ccc(C=C3C(=O)c4ccccc4C3=O)o2)ccc1O
assignedLabel: active

compound: O=C(O)CCCCCCCCCCN1C(=O)/C(=C/c2ccc(Br)cc2)SC1=S
assignedLabel: active

compound: O=C(O)C(Sc1nc2ccccc2s1)c1ccccc1 (configuration not stated)
assignedLabel: inactive

compound: O=c1[nH]c2ccc(Br)cc2c(-c2ccccc2)c1C1=NNC(c2ccc([N+](=O)[O-])cc2)C1 (configuration not stated)
assignedLabel: inactive

compound: CC1(C)c2ccccc2N(CCO)C12C=Cc1cc([N+](=O)[O-])ccc1O2 (configuration not stated)
assignedLabel: inactive

compound: N#Cc1c2c(c(N3CCN(CCO)CC3)n3c1nc1ccccc13)CCCC2
assignedLabel: inactive

compound: Cc1ccc(-c2cc(C(=O)NCc3ccccc3)c3ccccc3n2)o1
assignedLabel: active

compound: CCCCOc1c([N+](=O)[O-])cc([N+](=O)[O-])c2nsnc12
assignedLabel: inactive

compound: COc1cc(/C=c2\sc3nc4c(C)cc(C)cc4n3c2=O)cc(Br)c1O
assignedLabel: inactive

compound: COc1ccc(CCNC(=O)COc2cc(C)c(Cl)c(C)c2)cc1OC
assignedLabel: active

compound: CC(=O)C1=C(O)C(=O)N(CCN2CCNCC2)C1c1ccc(C)cc1 (configuration not stated)
assignedLabel: inactive

compound: Cc1cc(NC(=O)C2CC3CCC2C3)no1 (configuration not stated)
assignedLabel: inactive

compound: O=C1c2ccccc2C(=O)c2c(NC3CCCCC3)cccc21
assignedLabel: inactive

compound: CCN(C(=S)NC(=O)c1cccnc1)c1ccccc1
assignedLabel: inactive

compound: Cc1cc2oc(=O)cc(C)c2cc1NC(=O)c1ccccc1
assignedLabel: inactive
